Every entry's value here was drawn from patent US20140221611A1.

# measured-on: REFACTO® factor VIII-like polypeptide (amino acids 1-743 and 1638 through 2332 of human factor VIII) (human) (UniProt P00451)
# Sequence (P00451 20-762, chain 1 of 2): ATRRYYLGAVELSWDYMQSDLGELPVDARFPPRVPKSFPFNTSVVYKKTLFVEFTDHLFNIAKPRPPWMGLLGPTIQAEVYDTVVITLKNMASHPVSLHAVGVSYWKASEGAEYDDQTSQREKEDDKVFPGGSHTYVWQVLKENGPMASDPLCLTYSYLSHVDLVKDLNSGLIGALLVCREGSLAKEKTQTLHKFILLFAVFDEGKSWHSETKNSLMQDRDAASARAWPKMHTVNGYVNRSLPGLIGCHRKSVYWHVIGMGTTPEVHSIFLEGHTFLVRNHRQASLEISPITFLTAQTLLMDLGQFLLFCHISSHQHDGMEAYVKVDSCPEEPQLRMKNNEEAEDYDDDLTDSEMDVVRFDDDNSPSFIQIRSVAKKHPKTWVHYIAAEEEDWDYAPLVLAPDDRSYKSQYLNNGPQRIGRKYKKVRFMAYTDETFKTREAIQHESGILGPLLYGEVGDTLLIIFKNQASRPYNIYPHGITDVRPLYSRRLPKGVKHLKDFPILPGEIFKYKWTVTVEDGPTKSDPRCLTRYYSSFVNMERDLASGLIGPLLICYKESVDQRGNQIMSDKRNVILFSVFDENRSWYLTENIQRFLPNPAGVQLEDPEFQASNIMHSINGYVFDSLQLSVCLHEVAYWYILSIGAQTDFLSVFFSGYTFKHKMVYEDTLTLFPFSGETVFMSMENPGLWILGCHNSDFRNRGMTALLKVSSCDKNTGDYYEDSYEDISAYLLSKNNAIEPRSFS
# Sequence (P00451 1657-2351, chain 2 of 2): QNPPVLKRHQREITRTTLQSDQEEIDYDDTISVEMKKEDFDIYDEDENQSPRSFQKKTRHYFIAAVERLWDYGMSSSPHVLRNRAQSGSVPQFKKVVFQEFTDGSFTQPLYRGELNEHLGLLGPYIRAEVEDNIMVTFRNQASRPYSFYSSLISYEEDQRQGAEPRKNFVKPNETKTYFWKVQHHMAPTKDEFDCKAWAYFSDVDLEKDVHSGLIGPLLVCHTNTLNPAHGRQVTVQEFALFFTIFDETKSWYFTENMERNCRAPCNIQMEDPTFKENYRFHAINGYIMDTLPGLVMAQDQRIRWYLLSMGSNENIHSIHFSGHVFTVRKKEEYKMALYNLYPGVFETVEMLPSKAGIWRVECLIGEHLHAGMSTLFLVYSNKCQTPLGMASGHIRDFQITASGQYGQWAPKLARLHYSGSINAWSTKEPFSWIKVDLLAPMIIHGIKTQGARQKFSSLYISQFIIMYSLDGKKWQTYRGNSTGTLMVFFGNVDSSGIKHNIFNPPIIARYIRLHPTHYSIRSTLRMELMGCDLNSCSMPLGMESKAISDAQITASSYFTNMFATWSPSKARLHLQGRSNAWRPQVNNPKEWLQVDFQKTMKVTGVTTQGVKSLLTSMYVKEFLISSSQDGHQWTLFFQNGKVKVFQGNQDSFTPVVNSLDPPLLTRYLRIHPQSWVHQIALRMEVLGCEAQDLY
# test: affinity column of immobilised peptide; fractions by RP-HPLC
Positions of bridges follow the written chain, without caps; N, C: chain ends. No end group written: not given here. *: point of attachment. NHNH2 = NN*
Assign labels as follows, please: t for % recovery in Flow below 2%; f for % recovery in Flow equal to or exceeding 2%.

| binder | class-label |
| --- | --- |
| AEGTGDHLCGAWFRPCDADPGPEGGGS-NHNH2 (disulfide 9-16 (inferred)) [Affinity ligand CS-454] | f |
| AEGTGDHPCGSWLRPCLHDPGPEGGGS-NHNH2 (disulfide 9-16 (inferred)) [Affinity ligand CS-453] | t |
| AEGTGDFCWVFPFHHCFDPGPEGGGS-NHNH2 (disulfide 8-16 (inferred)) [Affinity ligand CS-460] | f |
| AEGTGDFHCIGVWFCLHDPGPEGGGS-NHNH2 (disulfide 9-15 (inferred)) [Affinity ligand CS-455] | f |
| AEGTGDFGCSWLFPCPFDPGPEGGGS-NHNH2 (disulfide 9-15 (inferred)) [Affinity ligand CS-456] | f |

Query: Lab log: compare recorded % recovery in Flow with 2%; is it strictly lower for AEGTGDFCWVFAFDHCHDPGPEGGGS-NHNH2 (disulfide 8-16 (inferred)) [Affinity ligand CS-458] ?
Reply: t

Query: Try the binder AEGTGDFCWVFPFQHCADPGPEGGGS-NHNH2 (disulfide 8-16 (inferred)) [Affinity ligand CS-459]
Reply: t
